inhibition values, listed per item
Target: 6-phosphogluconate dehydrogenase, decarboxylating (Homo sapiens)
Assay: inhibition of human phosphogluconate dehydrogenase – biochemical, recombinant enzyme, NADPH absorbance, primary screen (AID 1159550)
Settings: recombinant 6PGD, NADPH absorbance 341 nm; at 10 µM; hits give high values
Reply with just the number (in %).

Reference set, count: 10
- Molecule: "O=C(CCCCC(=O)Nc1c(I)cc(I)c(C(=O)O)c1I)Nc1c(I)cc(I)c(C(=O)O)c1I"
  inhibition / %: 15.2
- Molecule: "C1CCC(C(CC2CCCCN2)C2CCCCC2)CC1 (stereo unspecified)"
  inhibition / %: 12.3
- Molecule: "Oc1c(Cl)cc(Cl)c(Cl)c1Cc1c(O)c(Cl)cc(Cl)c1Cl"
  inhibition / %: -10.3
- Molecule: "Cc1cc(N)c2ccccc2[n+]1CCCCCCCCCC[n+]1c(C)cc(N)c2ccccc21"
  inhibition / %: 4.29
- Molecule: "NC[C@H](O)c1ccc(O)c(O)c1"
  inhibition / %: 7.95
- Molecule: "C#CCN(C)Cc1ccccc1"
  inhibition / %: 0.126
- Molecule: "COC(=O)Nc1nc2ccc(Sc3ccccc3)cc2[nH]1"
  inhibition / %: 10.3
- Molecule: "C=Cc1c(C)c2cc3[nH]c(cc4nc(cc5nc(cc1[nH]2)C(C)=C5CCC(=O)O)C(CCC(=O)O)=C4C)c(C)c3C=C"
  inhibition / %: 16.8
- Molecule: "CS(=O)(=O)c1ccc([C@@H](O)[C@@H](CO)NC(=O)C(Cl)Cl)cc1"
  inhibition / %: -8.02
- Molecule: "COc1ccc(CN(CCN(C)C)c2ccccn2)cc1"
  inhibition / %: 4.83

Kindly review the next molecule as well.
Reported inhibition, molecule Cc1cc2nc3c(=O)[nH]c(=O)nc-3n(C[C@H](O)[C@H](O)[C@H](O)CO)c2cc1C : ____
-2.13

----------
Biological target: 6-phosphogluconate dehydrogenase, decarboxylating (Homo sapiens) (UniProt P52209)
Sequence (P52209 whole entry, looked up): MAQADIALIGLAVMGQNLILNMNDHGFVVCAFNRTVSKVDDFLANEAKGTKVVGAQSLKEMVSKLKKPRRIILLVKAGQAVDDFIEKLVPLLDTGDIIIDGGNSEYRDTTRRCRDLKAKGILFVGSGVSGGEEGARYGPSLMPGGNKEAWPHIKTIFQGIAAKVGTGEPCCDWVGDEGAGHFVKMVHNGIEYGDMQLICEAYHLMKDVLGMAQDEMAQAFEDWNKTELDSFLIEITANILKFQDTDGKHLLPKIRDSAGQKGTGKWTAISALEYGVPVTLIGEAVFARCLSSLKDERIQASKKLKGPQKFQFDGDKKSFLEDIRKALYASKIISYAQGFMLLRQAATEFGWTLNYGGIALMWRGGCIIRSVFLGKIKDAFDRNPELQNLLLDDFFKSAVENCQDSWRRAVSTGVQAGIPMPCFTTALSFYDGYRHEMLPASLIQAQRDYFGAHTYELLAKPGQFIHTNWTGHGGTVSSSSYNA
Test: inhibition of human phosphogluconate dehydrogenase – biochemical, recombinant enzyme, NADPH absorbance, primary screen (AID 1159550)
Details: recombinant 6PGD, NADPH absorbance 341 nm; at 10 µM; hits give high values
Measured inhibition, listed per entry for reference.
Respond with the bare value in %.

- Compound: "CC1CC(OC(=O)C(O)c2ccccc2)CC(C)(C)N1C (stereo not drawn)"
  Target System: "6-phosphogluconate dehydrogenase, decarboxylating (Homo sapiens) (UniProt P52209)"
  Unit Spec: "%"
  inhibition: -25.4
- Compound: "CCCCC(CC)CN1CN(CC(CC)CCCC)CC(C)(N)C1 (stereo not drawn)"
  Target System: "6-phosphogluconate dehydrogenase, decarboxylating (Homo sapiens) (UniProt P52209)"
  Unit Spec: "%"
  inhibition: -10.4
- Compound: "OC[C@H]1O[C@@H](Oc2ccc(O)cc2)[C@H](O)[C@@H](O)[C@@H]1O"
  Target System: "6-phosphogluconate dehydrogenase, decarboxylating (Homo sapiens) (UniProt P52209)"
  Unit Spec: "%"
  inhibition: 17.9
- Compound: "C=CC(N)CCC(=O)O (stereo not drawn)"
  Target System: "6-phosphogluconate dehydrogenase, decarboxylating (Homo sapiens) (UniProt P52209)"
  Unit Spec: "%"
  inhibition: -0.693
- Compound: "CCN(CC)CCNC(=O)c1cc(S(C)(=O)=O)ccc1OC"
  Target System: "6-phosphogluconate dehydrogenase, decarboxylating (Homo sapiens) (UniProt P52209)"
  Unit Spec: "%"
  inhibition: -8.37
- Compound: "Nc1ccc(C(=O)O)c(O)c1"
  Target System: "6-phosphogluconate dehydrogenase, decarboxylating (Homo sapiens) (UniProt P52209)"
  Unit Spec: "%"
  inhibition: 6.71

Recall the recorded inhibition for Cc1cc(NC(=O)C2=C(O)c3ccccc3S(=O)(=O)N2C)no1 with 6-phosphogluconate dehydrogenase, decarboxylating (Homo sapiens) (UniProt P52209) and state it.
0.485

Missing value: inhibition, 6-phosphogluconate dehydrogenase, decarboxylating (Homo sapiens) (UniProt P52209), entry CCCCCC(C)N (stereo not drawn) . Fill in?
-7.17

Short answer please: inhibition, 6-phosphogluconate dehydrogenase, decarboxylating (Homo sapiens) (UniProt P52209), entry CCCCCN(CCCCC)C(=O)C(CCC(=O)O)NC(=O)c1ccc(Cl)c(Cl)c1 (stereo not drawn)
2.64

Please provide the recorded inhibition for Nc1ccc(S(=O)(=O)Nc2ccc(Cl)nn2)cc1 , tested on 6-phosphogluconate dehydrogenase, decarboxylating (Homo sapiens) (UniProt P52209).
10.1

For 6-phosphogluconate dehydrogenase, decarboxylating (Homo sapiens) (UniProt P52209), provide inhibition of O=C(O)c1cn(-c2ccc(F)cc2)c2cc(N3CCNCC3)c(F)cc2c1=O please.
0.148

Checklist item: inhibition tested on 6-phosphogluconate dehydrogenase, decarboxylating (Homo sapiens) (UniProt P52209), entry Cc1ccnc(NS(=O)(=O)c2ccc(N)cc2)n1 , value?
2.58

Lookup: inhibition / 6-phosphogluconate dehydrogenase, decarboxylating (Homo sapiens) (UniProt P52209) / CCCc1ncc(C[n+]2ccccc2C)c(N)n1
-3.15
